Tested On: human LILRB4 (human, UniProt Q8NHJ6 22-448)
Experiment Notes: cell-based or functional assay
Property: Fold change (Compared to isotype)

Binder	Fold change (Compared to isotype)
ch25-E7-A10-H6 (antibody, V domains shown) VH: EVQLVESGGGLVQPGGSRKLSCAASGFTFSTFGMHWVRQAPEKGLEWVAYISSGSSTIYYADTVKGRFTISRDNPKNTLFLQMTSLRSEDTAMYYCARSTGTGAMDYWGQGTSVTVSS VL: DIQMTQTTSSLSASLGDRVTISCRASQDISKYLNWYQQKPDGTVKLLIYYTSRLHSGVPSRFSGSGSGTDYSLTISNLEQEDIATYFCQQGNTLPWTFGGGTKLEIK	12.3 fold

Prompt line: Need Fold change (Compared to isotype) of ch36-F4-H1-D9 (antibody, V domains shown) VH: EVKLLESGGGLVQPGGSLKLSCAASGFDFSRYWMIWVRQAPEKGLEWIGEINPDSSTINYTPSLKDKFIISRDNAKNTLYLQMSKVRSEDTALYYCARPYYRYDVGYFDVWGAGTTVTVSS VL: DIVMTQAPKVLLVSAGDRVTISCKASQSVSNAVVWYQQKPGQSPKLLIFYASNRYTGVPDRFTGSGYGTDFTFSISTVQAEDLAVYFCQQDYSSPWTFGGGTKLEIK , thanks.
Response line: 17.2 fold

Prompt line: Need Fold change (Compared to isotype) of ch43-D12-F3-G11 (antibody, V domains shown) VH: EVQVVESGPGLVAPSQSLSITCTVSGFSLTSYGVSWVRQPPGKGLEWLGVIWADGSTNYHSALLSRLSISKDNSKSQVFLKLNSLQTDDTATYYCAKGHWDGFAYWGQGTLVAVSA VL: DIVLTQSPAIMSTSPGEKVTLTCSASSSITSSYLYWYQQKPGSSPKLWIYSTSNLASGVPARFSGSGSGTSYYLTISSMEAEDAASYFCHQWSSYPPTFGGGTKLELK , thanks.
Response line: 6.81 fold

Prompt line: Need Fold change (Compared to isotype) of ch27-D11-C2-A10 (antibody, V domains shown) VH: EVQLVESGGGLVQPGGSRKLSCAASGFTFSVFGVHWVRQAPEKGLEWVAYISSGSNTIHYADTVKGRFTISRDIPKNTLFLQMTSLRSEDTAMYYCARSSGTGAMDYWGQGTSVTVSS VL: DIQMTQSTSSLSASLGDRVSISCRASQDISNYLNWYQQKPDGAVKLLIYYTSRLHSGVPSRFSGSGSGTDYSLTISNLDQEDIATYFCQQGNTLPWTFGGGTKLELK , thanks.
Response line: 21.1 fold

Prompt line: Need Fold change (Compared to isotype) of ch25-G9-G4-C12 (antibody, V domains shown) VH: EVQLVESGGDLVKPGGSLKLSCAASGFTFSSHGMSWVRQTPDKRLEWVATINSGGYYTYYPDSVKGRFTISRDNAKNTLYLQMSSLKSEDTAMYYCARGQLGNWYFDVWGAGTTVTVSS VL: DIVMTQSPAIMSASPGEKVTITCSASSSVSYMHWFQQKPGTSPKLWIYSTSNLASGVPARFSGSGSGTSYSLTISRMEAEDAATYYCQQRSSYPLTFGAGTKLELK , thanks.
Response line: 11.3 fold

Prompt line: Need Fold change (Compared to isotype) of ch2-H1-D7-E5-D5 (antibody, V domains shown) VH: EVHLVESGGGLVQPGGSRKLSCAASGFTFSSFGMHWVRQPPEKGLEWVAYISSGSSSIYYADTVKGRFTISRDNPKNTLFLQMTSLRSEDTAMYYCARGTGTGAMDYWGQGTSVTVSS VL: DIQMTQTTSSLSASLGDRVTISCRTSQDISNYLNWYQQKPDGTVKLLIYYTSKLHSGVPSRFSGSGSGTDYSLTISNLDQEDIATYFCQQGNTLPWTFGGGTKLEIK , thanks.
Response line: 10.3 fold
